# ASSAY_DETAILS: Oral bioavailability in Sprague-Dawley rat plasma at 10 mg/kg administered via gavage by LC/MS analysis
# Type: ADME, organism-based
READOUT_NAME: bioavailability (%)
Please respond with the number in % and leave the unit unwritten.

input: Query (molecule): "CC#C[C@@H](CC(=O)O)c1ccc(OCc2cccc(-c3c(C)cc(OCCCS(C)(=O)=O)cc3C)c2)s1" ; field requested: bioavailability
output: 13.3

###

# TEST_SYSTEM: Free fatty acid receptor 1 (Homo sapiens, UniProt O14842)
# Sequence (O14842 whole entry): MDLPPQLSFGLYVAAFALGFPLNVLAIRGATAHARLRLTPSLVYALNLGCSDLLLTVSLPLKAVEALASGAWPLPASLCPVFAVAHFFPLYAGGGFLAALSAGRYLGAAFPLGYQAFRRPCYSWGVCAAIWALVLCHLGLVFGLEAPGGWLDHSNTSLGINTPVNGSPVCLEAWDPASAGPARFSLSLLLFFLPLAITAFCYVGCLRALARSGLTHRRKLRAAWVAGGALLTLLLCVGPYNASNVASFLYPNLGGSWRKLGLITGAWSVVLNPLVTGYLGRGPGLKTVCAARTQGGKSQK
# ASSAY_DETAILS: Agonist activity at human GPR40 expressed in CHO cells assessed as increase in intracellular Ca2+ flux by Fluo 4-AM dye based assay
pEC50: −log10 of the molar value.
Criterion: pEC50 meeting or surpassing 6. Met: Y. Not met: N.

Sample answers from the record:
input: Reported pEC50 reaches at least 6 for "Cc1cccc(C)c1-c1cccc(COc2cn(CCC(=O)O)nn2)c1" ?
output: N

input: For "Cc1cccc(C)c1-c1cccc(OCn2cc(CCC(=O)O)nn2)c1" then?
output: N

input: Same question, "COc1ccc(F)c(-c2cccc(COc3ccc(CCC(=O)O)s3)c2)c1" this time
output: Y

input: Same question, "Cc1cccc(C)c1-c1cccc(COc2csc(CCC(=O)O)c2)c1" this time
output: N

input: Subsequent entry: "CCO[C@@H](CC(=O)O)c1ccc(OCc2cccc(-c3c(C)cccc3C)c2)s1"
output: N

input: Then Cc1cccc(C)c1-c1cccc(COc2ccc(C(C#N)CC(=O)O)s2)c1 (racemic) ?
output: Y

Others:
input: Evaluate "Cc1cccc(C)c1-c1cccc(OCc2cn(CCC(=O)O)nn2)c1" : pEC50 at minimum 6?
output: N

input: Input "Cc1cccc(C)c1-c1cccc(COc2ccc(CCC(=O)O)cc2)c1"
output: Y

input: Let us now turn to "Cc1cccc(C)c1-c1cccc(OCc2ccc(CCC(=O)O)s2)c1"
output: N

input: Try this molecule next: CC#CC(CC(=O)O)c1ccc(OCc2cccc(-c3c(C)cccc3C)c2)s1 (racemic)
output: Y

###

# TEST_SYSTEM: Free fatty acid receptor 1 (Mus musculus) (UniProt Q76JU9)
# Sequence (Q76JU9 whole entry): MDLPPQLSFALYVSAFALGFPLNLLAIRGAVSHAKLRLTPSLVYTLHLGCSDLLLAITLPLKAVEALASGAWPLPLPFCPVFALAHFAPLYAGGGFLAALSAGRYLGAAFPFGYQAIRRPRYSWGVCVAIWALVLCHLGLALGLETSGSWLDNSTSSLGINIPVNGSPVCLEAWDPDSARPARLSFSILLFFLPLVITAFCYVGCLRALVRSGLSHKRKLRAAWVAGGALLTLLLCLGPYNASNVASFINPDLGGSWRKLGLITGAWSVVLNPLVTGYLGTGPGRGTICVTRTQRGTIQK
# ASSAY_DETAILS: Agonist activity at GPR40 in mouse MIN6 cells assessed as increase in 25 mM glucose-stimulated insulin secretion at 10 uM after 1 hr by ELISA
# Assay type: cell-based
Active and inactive are the calls of the source. No cut-off for these calls is given here.
A correct response names exactly one class from active, inactive

Answered examples (3):
input: Which outcome was entered for the compound "CC#C[C@@H](CC(=O)O)c1ccc(OCc2cccc(-c3c(C)cc(OCCCS(C)(=O)=O)cc3C)c2)s1" in this test?
output: active

input: Entry to check: "Cc1cc(OCCCS(C)(=O)=O)cc(C)c1-c1cccc(COc2ccc3c(c2)OC[C@H]3CC(=O)O)c1"
output: active

input: Likewise for "Cc1cccc(C)c1-c1cccc(COc2ccc(CCC(=O)O)s2)c1" ?
output: inactive

New cases:
input: Hey, what did the test say about "CCO[C@H](CC(=O)O)c1ccc(OCc2cccc(-c3c(C)cccc3C)c2)s1" ?
output: inactive

###

# TEST_SYSTEM: Free fatty acid receptor 1 (Homo sapiens, UniProt O14842)
# ASSAY_DETAILS: Agonist activity at human GPR40 expressed in CHO cells assessed as increase in intracellular Ca2+ flux by Fluo 4-AM dye based assay
Listed here: items and their measured pEC50.
# pEC50 = -log10(concentration in molar units)

Solved entries:
input: Look up pEC50 for this molecule: "CCO[C@H](CC(=O)O)c1ccc(OCc2cccc(-c3c(C)cccc3C)c2)s1"
output: 7.30

input: Would you mind doing Cc1cccc(C)c1-c1cccc(COc2ccc(C(CC(=O)O)C3CC3)s2)c1 (racemic) as well?
output: 5.41

input: Same for "N#CCc1ccccc1C#Cc1ccc(CCC(=O)O)s1"
output: 6.19

Kindly consider the entry below.
input: Recorded pEC50 of "CC#C[C@@H](CC(=O)O)c1ccc(OCc2cccc(-c3c(C)cc(OCCCS(C)(=O)=O)cc3C)c2)s1" , please.
output: 7.09

###

# TEST_SYSTEM: Free fatty acid receptor 1 (Homo sapiens)
# ASSAY_DETAILS: Agonist activity at human GPR40 expressed in CHO cells assessed as increase in intracellular Ca2+ flux by Fluo 4-AM dye based assay relative to 3-(4-((2',6'-dimethylbiphenyl-3-yl)methoxy)phenyl)propanoic acid
# Format: functional, cell-based
READOUT_NAME: Emax (%)
Report only the number, with the unit % understood.

A selection of reference data follows.
input: What value of Emax on Free fatty acid receptor 1 (Homo sapiens) does "Cc1cccc(C)c1-c1cccc(COc2ccc(CCC(=O)O)s2)c1" have?
output: 140

input: Quick one: "CCO[C@H](CC(=O)O)c1ccc(OCc2cccc(-c3c(C)cccc3C)c2)s1"
output: 147

input: And then "CC#C[C@@H](CC(=O)O)c1ccc(OCc2cccc(-c3c(C)cc(OCCCS(C)(=O)=O)cc3C)c2)s1" , what is it?
output: 244

Continuing:
input: Observed Emax on Free fatty acid receptor 1 (Homo sapiens) for "Cc1cccc(C)c1-c1cccc(COc2csc(CCC(=O)O)c2)c1" , please.
output: 135

input: Check "Cc1cccc(C)c1-c1cccc(OCn2cc(CCC(=O)O)nn2)c1" too.
output: 95.6

input: Also, "Cc1cccc(C)c1-c1cccc(COc2ccc(CCC(=O)O)cc2)c1" please.
output: 100

input: Please answer likewise for "Cc1cccc(C)c1-c1cccc(OCc2ccc(CCC(=O)O)s2)c1"
output: 136

input: Field entry: "Cc1cccc(C)c1-c1cccc(OCc2cn(CCC(=O)O)nn2)c1"
output: 79.9

input: Please do the same for "Cc1cccc(C)c1-c1cccc(COc2cn(CCC(=O)O)nn2)c1" as well.
output: 97.9

###

# TEST_SYSTEM: Free fatty acid receptor 1 (Homo sapiens)
# ASSAY_DETAILS: Agonist activity at human GPR40 expressed in CHO cells assessed as increase in intracellular Ca2+ flux at 10 uM by Fluo 4-AM dye based assay
# Format: functional, cell-based
Active and inactive are the calls of the source. The rule behind the calls is not given here.
READOUT_NAME: Activity

input: Reported Activity for Cc1cccc(C)c1-c1cccc(COc2ccc(C(CC(=O)O)c3c[nH]nn3)s2)c1 (racemic) : what is it?
output: inactive

input: Queued: "O=C(O)CCc1ccc(OCc2cccc(-c3ccc(C(F)(F)F)cc3)c2)s1"
output: inactive

input: What do you have for "N#Cc1ccccc1-c1cccc(COc2ccc(CCC(=O)O)s2)c1" ?
output: inactive

input: Likewise for CCC(CC(=O)O)c1ccc(OCc2cccc(-c3c(C)cccc3C)c2)s1 (racemic) ?
output: inactive

input: Entry to check: CC#CC(CC(=O)O)c1ccc(OCc2cccc(-c3c(C)cc(OC4CCN(C)CC4)cc3C)c2)s1 (racemic)
output: inactive

Others:
input: Quick one: Activity for "NC(=O)c1ccccc1-c1cccc(COc2ccc(CCC(=O)O)s2)c1" ?
output: inactive

input: Let us now turn to "Cc1cccc(C)c1-c1cccc(COc2ccc([C@H](CC(=O)O)c3ccon3)s2)c1"
output: inactive

###

# ASSAY_DETAILS: AUC (0 to t) in Sprague-Dawley rat plasma at 1 mg/kg, iv by LC/MS analysis
# Assay type: ADME, organism-based
READOUT_NAME: AUC(0-t)
Record the result as number plus unit.

input: Consider the molecule "CC#C[C@@H](CC(=O)O)c1ccc(OCc2cccc(-c3c(C)cc(OCCCS(C)(=O)=O)cc3C)c2)s1" and give its measured AUC(0-t).
output: 3320 ng·h/mL

###

# TEST_SYSTEM: Free fatty acid receptor 1 (Homo sapiens, UniProt O14842)
# ASSAY_DETAILS: Agonist activity at human GPR40 expressed in CHO cells assessed as increase in intracellular Ca2+ flux by Fluo 4-AM dye based assay
Documented pEC50 across a set of compounds
In plain terms, pEC50 is the concentration in mol/L turned into minus its base-10 logarithm.

input: Query (compound): CCOC(CC(=O)O)c1ccc(OCc2cccc(-c3c(C)cccc3C)c2)s1 (racemic) ; field requested: pEC50
output: 7.24

input: Then what about the compound CC#CC(CC(=O)O)c1ccc(OCc2cccc(-c3c(C)cc(OCCCS(C)(=O)=O)cc3C)c2)s1 (racemic) ?
output: 6.62

input: Now consider COC(CC(=O)O)c1ccc(OCc2cccc(-c3c(C)cccc3C)c2)s1 (racemic) and answer again.
output: 6.68

input: Now consider Cc1cccc(C)c1-c1cccc(COc2ccc(CC3SC(=O)NC3=O)s2)c1 (centres undefined) .
output: 7.09

input: Query "Cc1cccc(C)c1-c1cccc(COc2ccc(CCC(=O)O)s2)c1" next
output: 7.49

---
input: Name the recorded pEC50 for "CC#C[C@H](CC(=O)O)c1ccc(OCc2cccc(-c3c(C)cc(OCCCS(C)(=O)=O)cc3C)c2)s1" .
output: 6.39

input: Consider next the compound "O=C(O)CCc1ccc(OCc2cccc(-c3ccccc3C(F)(F)F)c2)s1" in the same way.
output: 5.57

input: Please give the result for "O=C(O)CCc1ccc(OCc2cccc(-c3ccncc3Cl)c2)s1" too.
output: 5.70

input: Cool, now CC#CC(CC(=O)O)c1ccc(OCc2cccc(-c3c(C)cc(OCC4(C)COC4)cc3C)c2)s1 (racemic)
output: 6.35
